The entries that follow carry pIC50 values tested on CD73 (Homo sapiens (Human)), drawn from several published reports.
pIC50: −log10 of the molar value.

For orientation, consider the following solved cases.
molecule	result value
Cn1cc(NC(=O)O[C@@H]2CCN(c3cn[nH]c(=O)c3Cl)C2)cn1	5.00 to 9.00
Cc1cc(N[C@@H]2CCc3cc(F)ccc32)c2cnn([C@@H]3O[C@H](COP(=O)(O)CP(=O)(O)O)[C@@H](O)[C@H]3O)c2n1	8.90
COCC(COCc1nn[nH]n1)(OC[C@H]1O[C@@H](c2cnn3c(NC4CCCC4)cc(Cl)nc23)[C@H](O)[C@@H]1O)P(=O)(O)O (stereo partly shown)	≥ 9.30

Moving on to another molecule below.
Sure, the documented pIC50 for N#Cc1c(N2C[C@H](OC(=O)NC3CCC(F)(F)CC3)[C@@H](F)C2)cn[nH]c1=O is 5.00 to 9.00
